Target: human Thyroid Receptor Alpha (TRa), THRA (gene 7067) (UniProt P10827)
Sequence (P10827 whole entry, looked up): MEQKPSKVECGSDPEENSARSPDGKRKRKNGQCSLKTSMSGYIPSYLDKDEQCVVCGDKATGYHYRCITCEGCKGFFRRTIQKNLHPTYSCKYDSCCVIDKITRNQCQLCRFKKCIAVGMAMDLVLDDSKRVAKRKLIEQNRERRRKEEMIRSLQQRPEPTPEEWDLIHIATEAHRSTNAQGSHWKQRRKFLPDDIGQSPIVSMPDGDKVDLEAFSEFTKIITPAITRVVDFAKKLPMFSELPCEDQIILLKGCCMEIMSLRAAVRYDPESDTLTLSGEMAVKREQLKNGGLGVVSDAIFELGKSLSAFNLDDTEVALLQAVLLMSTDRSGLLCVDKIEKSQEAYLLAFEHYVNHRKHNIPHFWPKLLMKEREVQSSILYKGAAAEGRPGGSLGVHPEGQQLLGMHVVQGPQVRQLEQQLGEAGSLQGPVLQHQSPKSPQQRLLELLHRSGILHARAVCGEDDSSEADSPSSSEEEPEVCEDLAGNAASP
Test: NVS_NR_hTRa_Antagonist: NovaScreen (NVS) Nuclear Receptor Binding Assay for human Thyroid Receptor Alpha Antagonism (TRa) (AID 2283362);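 note: activity is loss of signal relative to DMSO baseline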
Results filed as inconclusive are left out. Active and inactive are the calls of the source. Rule for the calls: active = hit-call score of the fitted dose curve at least 0.9, where 1 is the maximum; inconclusive = response in the unintended direction; inactive = score below 0.9.
The reply should name one outcome from active, inactive

For orientation, consider the following solved cases.
Tell me the recorded outcome of this test for CC[C@H](C)[C@H]1O[C@]2(C=C[C@@H]1C)C[C@@H]1C[C@@H](C/C=C(\C)[C@@H](O[C@H]3C[C@H](OC)[C@@H](O[C@H]4C[C@H](OC)[C@@H](O)[C@H](C)O4)[C@H](C)O3)[C@@H](C)/C=C/C=C3\CO[C@@H]4[C@H](O)C(C)=C[C@@H](C(=O)O1)[C@]34O)O2 (tested in a mixture with another compound) .
active

I would be grateful if you could indicate the recorded call for CC(C)(C)C(O)C(Oc1ccc(Cl)cc1)n1cncn1 (stereo unspecified) .
inactive

Please let me know the test result on file for COc1nn(CSP(=S)(OC)OC)c(=O)s1 .
inactive

I would be grateful if you could indicate the recorded call for CCCN(CCOc1c(Cl)cc(Cl)cc1Cl)C(=O)n1ccnc1 .
active

---
Please share the test call associated with COP(=O)(OC)OC=C(Cl)Cl .
inactive

Identify the outcome logged in this assay for the molecule shown: CCOc1nc(NC)nc(NC(=O)NS(=O)(=O)c2ccccc2C(=O)OC)n1
inactive

----------
Test: CEETOX_H295R_ESTRONE: CeeTox H295R High-throughput Steroidogenesis Assay for Estrone (AID 2283441);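 note: estrone secreted into medium measured by LC-MS/MS after dansyl derivatization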
Details: actives raise or lower the signal
Experimental: CEETOX_H295R is a cell-based, multiplexed-readout assay that uses H295R, a human adrenal gland cell line, with measurements taken at 48 hours after chemical dosing in a 96-well plate.CEETOX_H295R_ESTRONE is one of 23 assay component(s) measured or calculated from the CEETOX_H295R assay. […] This assay endpoint, CEETOX_H295R_ESTRONE, was analyzed with bidirectional fitting relative to DMSO as the negative control and baseline of activity. […]
Active and inactive are the calls of the source. Rule for the calls: active = hit-call score of the fitted dose curve at least 0.9, where 1 is the maximum; inactive = score below 0.9.
Respond with a class label; see Y (active), N (inactive)

What outcome does the record of this test show for O=C1c2ccccc2C(=O)N1SC(Cl)(Cl)Cl ?
N

Tell me the assay call for COc1nn(CSP(=S)(OC)OC)c(=O)s1 please.
Y

Called result for CCc1ccc(C(=O)NN(C(=O)c2cc(C)cc(C)c2)C(C)(C)C)cc1
N

Which outcome did this test record for the compound CC(C)(C)C(O)/C(=C\c1ccc(Cl)cc1Cl)n1cncn1 (stereo not given) ?
N

So what was the verdict on O=[N+]([O-])/N=C1\NCCN1Cc1ccc(Cl)nc1 in this test?
N

----------
Molecular target: human Thyroid hormone Receptor beta (TRb), THRB (gene 7068)
Assay: ATG_hTRb_XSP2: Attagene TRANS-FACTORIAL Multi-Species (XSP2) HepG2 Assay for human Thyroid hormone Receptor beta (TRb) (AID 2283840);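 note: actives raise reporter mRNA so potency reflects agonist-like gain of signal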
Results filed as inconclusive are left out. The source made the active and inactive calls. The calls were made as follows: active = hit-call score of the fitted dose curve at least 0.9, where 1 is the maximum; inconclusive = response in the unintended direction; inactive = score below 0.9.
Please answer using one outcome listed in true (active), false (inactive)

Worked examples, 6 compounds total:
Test call for this compound, please: COP(=S)(OC)Oc1ccc([N+](=O)[O-])cc1
false

Record lookup: outcome of this test for COP(=S)(OC)Oc1ccc(SC)c(C)c1 ?
false

What outcome does the record of this test show for O=S1OCC2C(CO1)C1(Cl)C(Cl)=C(Cl)C2(Cl)C1(Cl)Cl (configuration not stated) ?
false

Please let me know the test result on file for O=C(O)C(F)(F)C(F)(F)C(F)(F)C(F)(F)C(F)(F)C(F)(F)C(F)(F)F .
false

Recorded test outcome, item CC1(C)C(C=C(Cl)Cl)C1C(=O)OC(C#N)c1ccc(F)c(Oc2ccccc2)c1 (configuration not stated)
false

Recorded call for CCOCN(C(=O)CCl)c1c(C)cccc1CC ?
false

Next:
Entry Oc1cc(Cl)ccc1Oc1ccc(Cl)cc1Cl : call = ?
true

----------
Molecular target: Estrogen receptor (Homo sapiens) (UniProt P03372)
Sequence (P03372 whole entry, looked up): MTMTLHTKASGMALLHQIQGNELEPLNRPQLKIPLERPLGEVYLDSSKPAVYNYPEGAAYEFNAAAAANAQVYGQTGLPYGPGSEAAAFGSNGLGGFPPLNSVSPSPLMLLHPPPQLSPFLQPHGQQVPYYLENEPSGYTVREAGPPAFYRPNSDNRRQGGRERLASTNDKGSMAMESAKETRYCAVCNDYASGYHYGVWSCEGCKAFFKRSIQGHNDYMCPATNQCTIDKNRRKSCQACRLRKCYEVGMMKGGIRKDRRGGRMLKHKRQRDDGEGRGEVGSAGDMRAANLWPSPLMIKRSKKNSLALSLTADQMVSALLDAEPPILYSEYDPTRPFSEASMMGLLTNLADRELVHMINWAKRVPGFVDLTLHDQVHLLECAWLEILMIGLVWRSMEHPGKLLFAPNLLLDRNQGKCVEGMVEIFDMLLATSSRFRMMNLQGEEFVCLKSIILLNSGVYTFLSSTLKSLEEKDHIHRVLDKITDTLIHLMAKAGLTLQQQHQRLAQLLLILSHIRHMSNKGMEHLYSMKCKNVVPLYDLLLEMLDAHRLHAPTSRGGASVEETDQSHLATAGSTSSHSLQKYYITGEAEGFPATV
Assay: OT_ERa_GFPERaERE_0480: Odyssey Thera (OT) 8-hour HeLa Transcription Induction Assay for Estrogen Receptor (AID 2283381)
Activity calls are given as the source filed them. Rule for the calls: active = hit-call score of the fitted dose curve at least 0.9, where 1 is the maximum; inactive = score below 0.9.
Entry note: the call must match one of active, inactive

Field: outcome | Entry: CCOC1Oc2ccc(OS(C)(=O)=O)cc2C1(C)C (stereo not drawn)
active

Kindly review the next compound as well.
Please share the test call associated with OCCOc1ccccc1 .
inactive

----------
Test: APR_HepG2_MitoMembPot_24hr: Apredica 24-hour HepG2 Assay for Mitochondrial Membrane Potential (AID 2282911)
Settings: imaging, actives raise or lower the signal
The source made the active and inactive calls. The calls were made as follows: active = hit-call score of the fitted dose curve at least 0.9, where 1 is the maximum; inactive = score below 0.9.
Response enum: active, inactive

Called result for CC1(C)C(C=C(Cl)Cl)C1C(=O)OC(C#N)c1ccc(F)c(Oc2ccccc2)c1 (configuration not stated)
inactive

Write down the call the test reported for this compound. Item: CCc1ccc(C(=O)NN(C(=O)c2cc(C)cc(C)c2)C(C)(C)C)cc1
inactive

What call does the record list for OCCOc1ccccc1 ?
inactive

Please share the test call associated with COP(=S)(OC)Oc1ccc([N+](=O)[O-])cc1 .
inactive

In this assay, the call recorded for O=C1c2ccccc2C(=O)N1SC(Cl)(Cl)Cl was what?
inactive

Recorded call for CCOc1nc(NC)nc(NC(=O)NS(=O)(=O)c2ccccc2C(=O)OC)n1 ?
inactive

Next:
Outcome logged for CN1CSC(=S)N(C)C1 in this assay:
inactive

Answer briefly: the call reported for CNC(=O)Oc1ccccc1OC(C)C in this assay.
inactive

# fetch the recorded call for C#CCN1C(=O)COc2cc(F)c(N3C(=O)C4=C(CCCC4)C3=O)cc21 here
inactive

Dear colleague, could you share the recorded outcome for CCOC1Oc2ccc(OS(C)(=O)=O)cc2C1(C)C (configuration not stated) when you have a moment?
inactive

Any idea what this test logged for CCOCN(C(=O)CCl)c1c(C)cccc1CC ?
active

// return assay outcome for CC[C@H](C)[C@H]1O[C@]2(C=C[C@@H]1C)C[C@@H]1C[C@@H](C/C=C(\C)[C@@H](O[C@H]3C[C@H](OC)[C@@H](O[C@H]4C[C@H](OC)[C@@H](O)[C@H](C)O4)[C@H](C)O3)[C@@H](C)/C=C/C=C3\CO[C@@H]4[C@H](O)C(C)=C[C@@H](C(=O)O1)[C@]34O)O2 (tested in a mixture with another compound)
inactive

What call does the record list for CCC(C)Nc1c([N+](=O)[O-])cc(C(C)(C)C)cc1[N+](=O)[O-] (configuration not stated) ?
active

Please share the test call associated with CC1(c2ccc(Oc3ccccc3)cc2)OC(=O)N(Nc2ccccc2)C1=O (configuration not stated) .
active

Hi team, can someone confirm the assay call for ClC1C(Cl)C(Cl)C(Cl)C(Cl)C1Cl (configuration not stated) ?
inactive

# outcome recorded in this test, key = Clc1ccccc1-c1nnc(-c2ccccc2Cl)nn1
active

----------
Read-out: matrix metalloproteinase-1 (MMP1), MMP1 (gene 4312)
Assay: LTEA_HepaRG_MMP1: Life Technologies and Expression Analysis (LTEA) Assay for matrix metalloproteinase-1 (MMP1) using HepaRG (AID 2283658)
Details: mRNA level, 48 h; actives raise or lower the signal
Active and inactive are the calls of the source. Rule for the calls: active = hit-call score of the fitted dose curve at least 0.9, where 1 is the maximum; inactive = score below 0.9.
Respond only with the outcome that fits, drawn from active, inactive

Field: example entries. Status: answers known.
What did the test return for CCCN(CCOc1c(Cl)cc(Cl)cc1Cl)C(=O)n1ccnc1 ?
active

Please indicate how the test categorized CN1CSC(=S)N(C)C1 .
inactive

Hey, what did the test say about O=C1c2ccccc2C(=O)N1SC(Cl)(Cl)Cl ?
inactive

Assay outcome for CCC(C)Nc1c([N+](=O)[O-])cc(C(C)(C)C)cc1[N+](=O)[O-] (stereo unspecified) : what was it?
inactive

Further cases:
Query: recorded result category for CCCN(CCC)c1c([N+](=O)[O-])cc(C(F)(F)F)cc1[N+](=O)[O-] in this test
inactive

Which result was noted for this compound in the test: ClC1C(Cl)C(Cl)C(Cl)C(Cl)C1Cl (stereo unspecified)
inactive

----------
Biological target: CCAAT/enhancer-binding protein beta (Homo sapiens)
Assay: ATG_C_EBP_CIS: Attagene CIS-FACTORIAL HepG2 Assay for human CCAAT/Enhancer Binding Protein (C/EBP) beta (AID 2282927)
Conditions: HepG2 Attagene cis-factorial transcription factor reporter; actives raise or lower the signal
Calls of active or inactive are those of the source. Rule for the calls: active = hit-call score of the fitted dose curve at least 0.9, where 1 is the maximum; inactive = score below 0.9.
assay_readout: outcome

The value of outcome measured for the compound COC(=O)c1ccccc1S(=O)(=O)NC(=O)N(C)c1nc(C)nc(OC)n1 turned out to be inactive

Just so you know, measured outcome for O=C(O)C(F)(F)C(F)(F)C(F)(F)C(F)(F)C(F)(F)C(F)(F)C(F)(F)F came out at inactive

Looking up CCCN(CCOc1c(Cl)cc(Cl)cc1Cl)C(=O)n1ccnc1 , I see its outcome listed as inactive

Lookup result for O=C(O)CCCOc1ccc(Cl)cc1Cl ; measured outcome: inactive

Please fill in: outcome reported for COc1nn(CSP(=S)(OC)OC)c(=O)s1 = inactive

// outcome value for CC(C)(C)C(O)/C(=C\c1ccc(Cl)cc1Cl)n1cncn1 (stereo not drawn) : inactive

Further cases:
Record summary for CN1CSC(=S)N(C)C1 : reported outcome = inactive

The recorded outcome for CC[C@H](C)[C@H]1O[C@]2(C=C[C@@H]1C)C[C@@H]1C[C@@H](C/C=C(\C)[C@@H](O[C@H]3C[C@H](OC)[C@@H](O[C@H]4C[C@H](OC)[C@@H](O)[C@H](C)O4)[C@H](C)O3)[C@@H](C)/C=C/C=C3\CO[C@@H]4[C@H](O)C(C)=C[C@@H](C(=O)O1)[C@]34O)O2 (tested in a mixture with another compound) is inactive
